Recorded increase of exposure caused by Odalasvir values for a group of compounds are listed next.
procedure.details: Phase-1 drug-drug interaction study of Odalasvir, Simeprevir and Compound (III) in healthy volunteers
Format: in vivo, human
cond: DDI study results

compound | increase of exposure caused by Odalasvir / ×
C[C@H](NP(=O)(O)OC[C@@]1(F)O[C@@H](n2ccc(=O)[nH]c2=O)[C@](C)(O)[C@@H]1O)C(=O)O | 2.6
C[C@]1(O)[C@H](n2ccc(=O)[nH]c2=O)O[C@](F)(CO)[C@H]1O | 1.5
CC(C)OC(=O)[C@H](C)N[P@](=O)(OC[C@@]1(F)O[C@@H](n2ccc(=O)[nH]c2=O)[C@](C)(O)[C@@H]1O)Oc1ccccc1 | 4
COc1ccc2c(O[C@@H]3C[C@H]4C(=O)N[C@]5(C(=O)NS(=O)(=O)C6CC6)C[C@H]5/C=C\CCCCN(C)C(=O)[C@@H]4C3)cc(-c3nc(C(C)C)cs3)nc2c1C [Simeprevir, reference compound] | 1.6

----------
procedure.details: PK of single agents vs fixed dose combinations, single dose in healthy volunteers (Example 13)
Type: in vivo, human
cond: Arm 1 (reference): single agents; mean ± SD
t1/2term values for the compounds below.

compound | t1/2term, h
COC(=O)N[C@H](C(=O)N1[C@H](c2nc3cc(-c4cc5ccc4CCc4ccc(c(-c6ccc7[nH]c([C@@H]8C[C@@H]9CCCC[C@@H]9N8C(=O)[C@@H](NC(=O)OC)C(C)C)nc7c6)c4)CC5)ccc3[nH]2)C[C@@H]2CCCC[C@@H]21)C(C)C | 168.6
C[C@H](NP(=O)(O)OC[C@@]1(F)O[C@@H](n2ccc(=O)[nH]c2=O)[C@](C)(O)[C@@H]1O)C(=O)O | 2.6
CC(C)OC(=O)[C@H](C)N[P@](=O)(OC[C@@]1(F)O[C@@H](n2ccc(=O)[nH]c2=O)[C@](C)(O)[C@@H]1O)Oc1ccccc1 | 0.6
C[C@]1(O)[C@H](n2ccc(=O)[nH]c2=O)O[C@](F)(CO)[C@H]1O | 19.6
COc1ccc2c(O[C@@H]3C[C@H]4C(=O)N[C@]5(C(=O)NS(=O)(=O)C6CC6)C[C@H]5/C=C\CCCCN(C)C(=O)[C@@H]4C3)cc(-c3nc(C(C)C)cs3)nc2c1C [Simeprevir, reference compound] | 8.3

----------
procedure.details: PK of single agents vs fixed dose combinations, single dose in healthy volunteers (Example 13)
Format: in vivo, human
cond: Arm 4: FDC01; mean ± SD

compound | t1/2term [h]
C[C@]1(O)[C@H](n2ccc(=O)[nH]c2=O)O[C@](F)(CO)[C@H]1O [Compound A-1] | 18.3
COc1ccc2c(O[C@@H]3C[C@H]4C(=O)N[C@]5(C(=O)NS(=O)(=O)C6CC6)C[C@H]5/C=C\CCCCN(C)C(=O)[C@@H]4C3)cc(-c3nc(C(C)C)cs3)nc2c1C [Simeprevir, reference compound] | 8.5
CC(C)OC(=O)[C@H](C)N[P@](=O)(OC[C@@]1(F)O[C@@H](n2ccc(=O)[nH]c2=O)[C@](C)(O)[C@@H]1O)Oc1ccccc1 [Compound (III)] | 0.6
C[C@H](NP(=O)(O)OC[C@@]1(F)O[C@@H](n2ccc(=O)[nH]c2=O)[C@](C)(O)[C@@H]1O)C(=O)O [Compound A-3] | 2.5
COC(=O)N[C@H](C(=O)N1[C@H](c2nc3cc(-c4cc5ccc4CCc4ccc(c(-c6ccc7[nH]c([C@@H]8C[C@@H]9CCCC[C@@H]9N8C(=O)[C@@H](NC(=O)OC)C(C)C)nc7c6)c4)CC5)ccc3[nH]2)C[C@@H]2CCCC[C@@H]21)C(C)C [Odalasvir] | 167.8

----------
increase of exposure caused by SMV for assorted molecules
procedure.details: Phase-1 drug-drug interaction study of Odalasvir, Simeprevir and Compound (III) in healthy volunteers
Assay type: in vivo, human
cond: DDI study results

molecule | increase of exposure caused by SMV [×]
C[C@H](NP(=O)(O)OC[C@@]1(F)O[C@@H](n2ccc(=O)[nH]c2=O)[C@](C)(O)[C@@H]1O)C(=O)O [Compound A-3] | 1.6
COC(=O)N[C@H](C(=O)N1[C@H](c2nc3cc(-c4cc5ccc4CCc4ccc(c(-c6ccc7[nH]c([C@@H]8C[C@@H]9CCCC[C@@H]9N8C(=O)[C@@H](NC(=O)OC)C(C)C)nc7c6)c4)CC5)ccc3[nH]2)C[C@@H]2CCCC[C@@H]21)C(C)C [Odalasvir] | 1.6
CC(C)OC(=O)[C@H](C)N[P@](=O)(OC[C@@]1(F)O[C@@H](n2ccc(=O)[nH]c2=O)[C@](C)(O)[C@@H]1O)Oc1ccccc1 [Compound (III)] | 3

----------
procedure.details: PK of single agents vs fixed dose combinations, single dose in healthy volunteers (Example 13)
Format: in vivo, human
cond: Arm 2: FDC02; mean ± SD
Define the label as MET when t1/2term is strictly less than 9 h and as NOT MET in all remaining cases.

compound | class.label
COC(=O)N[C@H](C(=O)N1[C@H](c2nc3cc(-c4cc5ccc4CCc4ccc(c(-c6ccc7[nH]c([C@@H]8C[C@@H]9CCCC[C@@H]9N8C(=O)[C@@H](NC(=O)OC)C(C)C)nc7c6)c4)CC5)ccc3[nH]2)C[C@@H]2CCCC[C@@H]21)C(C)C | NOT MET
CC(C)OC(=O)[C@H](C)N[P@](=O)(OC[C@@]1(F)O[C@@H](n2ccc(=O)[nH]c2=O)[C@](C)(O)[C@@H]1O)Oc1ccccc1 | MET
C[C@]1(O)[C@H](n2ccc(=O)[nH]c2=O)O[C@](F)(CO)[C@H]1O | NOT MET
C[C@H](NP(=O)(O)OC[C@@]1(F)O[C@@H](n2ccc(=O)[nH]c2=O)[C@](C)(O)[C@@H]1O)C(=O)O | MET
COc1ccc2c(O[C@@H]3C[C@H]4C(=O)N[C@]5(C(=O)NS(=O)(=O)C6CC6)C[C@H]5/C=C\CCCCN(C)C(=O)[C@@H]4C3)cc(-c3nc(C(C)C)cs3)nc2c1C [Simeprevir, reference compound] | MET

----------
The molecules listed here are annotated with their log10 t1/2term.
procedure.details: PK of single agents vs fixed dose combinations, single dose in healthy volunteers (Example 13)
Format: in vivo, human
cond: Arm 3: FDC04; mean ± SD
Experimental: SMV (100 mg), ODV (50 mg), and Compound (III) (800 mg) were administered as three different formulations or together as single doses in vivo to healthy volunteers. […] PK parameters, including Cmax, tmax, AUClast, and AUC∞ were measured for Compound (III), ODV, SMV, and metabolites Compound A-1 and Compound A-3 for each Arm of the study. […]
metric: log10 t1/2term (log10 of the value in h)

molecule | metric | assay.result
C[C@]1(O)[C@H](n2ccc(=O)[nH]c2=O)O[C@](F)(CO)[C@H]1O [Compound A-1] | log10 t1/2term | 1.31
C[C@H](NP(=O)(O)OC[C@@]1(F)O[C@@H](n2ccc(=O)[nH]c2=O)[C@](C)(O)[C@@H]1O)C(=O)O [Compound A-3] | log10 t1/2term | 0.46
CC(C)OC(=O)[C@H](C)N[P@](=O)(OC[C@@]1(F)O[C@@H](n2ccc(=O)[nH]c2=O)[C@](C)(O)[C@@H]1O)Oc1ccccc1 [Compound (III)] | log10 t1/2term | -0.15
COC(=O)N[C@H](C(=O)N1[C@H](c2nc3cc(-c4cc5ccc4CCc4ccc(c(-c6ccc7[nH]c([C@@H]8C[C@@H]9CCCC[C@@H]9N8C(=O)[C@@H](NC(=O)OC)C(C)C)nc7c6)c4)CC5)ccc3[nH]2)C[C@@H]2CCCC[C@@H]21)C(C)C [Odalasvir] | log10 t1/2term | 2.25
COc1ccc2c(O[C@@H]3C[C@H]4C(=O)N[C@]5(C(=O)NS(=O)(=O)C6CC6)C[C@H]5/C=C\CCCCN(C)C(=O)[C@@H]4C3)cc(-c3nc(C(C)C)cs3)nc2c1C [Simeprevir, reference compound] | log10 t1/2term | 0.96
